system: HMVEC human primary dermal microvascular endothelial cells; test: Inhibition of cell proliferation, crystal violet staining; assay type: cell-based; details: Homo sapiens, 96 h, 4 days incubation
readoutName: IC50 (µM)
Return type: number; implicit unit µM.

| compound | experimentalResult |
| --- | --- |
| CC(=O)O[C@H]1C(=O)[C@@]2(C)[C@H]([C@H](OC(=O)c3ccccc3)[C@]3(O)C[C@H](OC(=O)[C@H](O)[C@@H](NC(=O)c4ccccc4)c4ccccc4)C(C)=C1C3(C)C)[C@]1(OC(C)=O)CO[C@@H]1C[C@@H]2O [Taxol, reference compound] | 0.004 |
| COc1cc2c(cc1OS(N)(=O)=O)CC[C@@H]1[C@@H]2CC[C@]2(C)C(=C(F)F)CC[C@@H]12 | 0.2 |
| COc1cc2c(cc1OS(N)(=O)=O)CC[C@@H]1[C@@H]2CC[C@]2(C)[C@@H](C(F)F)CC[C@@H]12 | 0.2 |
| CCc1cc2c(cc1OS(N)(=O)=O)CC[C@@H]1[C@@H]2CC[C@]2(C)[C@@H](OC)CC[C@@H]12 | 0.16 |

We next turn to a different compound, shown below.
Query string: What value of measured IC50 is listed for C=C1CC[C@H]2[C@@H]3CCc4cc(OS(N)(=O)=O)c(OC)cc4[C@H]3CC[C@]12C ?
Result string: 0.16

====

Test system: NCl-H460 human non-small-cell lung cancer cells
Assay: Inhibition of cell proliferation, crystal violet staining
Format: cell-based
Details: Homo sapiens, 96 h; NCl-H460, 4 days incubation
Description: Cell cultures of the following cell lines were prepared in 96-well microtiter plates: • 1. MaTu/ADR multidrug-resistant human breast tumor cells (Epo GmbH Berlin), 5000 cells/well. • 2. HCT116 human colon tumor cells (ATCC CCL-247), 3000 cells/well. • 3. NCl-H460 human non-small-cell lung cancer cells (ATCC HTB-177), 3000 cells/well. • 4. DU145 human prostate tumor cells (ATCC HTB-81), 5000 cells/well. • 5. HMVEC human primary dermal microvascular endothelial cells, 7500 cells/well. […]
Known pIC50 of a selection of compounds
Units for pIC50: none; it is -log10 of a concentration expressed in mol/L.

Illustrative cases are given below, each with its answer.
| compound | pIC50 |
| --- | --- |
| CC(=O)O[C@H]1C(=O)[C@@]2(C)[C@H]([C@H](OC(=O)c3ccccc3)[C@]3(O)C[C@H](OC(=O)[C@H](O)[C@@H](NC(=O)c4ccccc4)c4ccccc4)C(C)=C1C3(C)C)[C@]1(OC(C)=O)CO[C@@H]1C[C@@H]2O [Taxol, reference compound] | 8.40 |
| COc1cc2c(cc1OS(N)(=O)=O)CC[C@@H]1[C@@H]2CC[C@]2(C)CCC[C@@H]12 | 6.40 |

We next turn to a different compound, shown below.
Query string: What value of measured pIC50 is listed for C=C1CC[C@H]2[C@@H]3CCc4cc(OS(N)(=O)=O)c(OC)cc4[C@H]3CC[C@]12C ?
Result string: 6.74

====

target: microtubular protein (tubulin) purified from pig brains (Sus scrofa, UniProt P02550+P02554); construct: microtubular protein was purified from pig brains via cyclic assembling/disassembling; test: Inhibition of tubulin polymerization (turbidimetry at 340 nm); details: pig brain microtubular protein 1 mg/ml, 0.25 mmol GTP, 37° C.
Sequence (P02550 whole entry): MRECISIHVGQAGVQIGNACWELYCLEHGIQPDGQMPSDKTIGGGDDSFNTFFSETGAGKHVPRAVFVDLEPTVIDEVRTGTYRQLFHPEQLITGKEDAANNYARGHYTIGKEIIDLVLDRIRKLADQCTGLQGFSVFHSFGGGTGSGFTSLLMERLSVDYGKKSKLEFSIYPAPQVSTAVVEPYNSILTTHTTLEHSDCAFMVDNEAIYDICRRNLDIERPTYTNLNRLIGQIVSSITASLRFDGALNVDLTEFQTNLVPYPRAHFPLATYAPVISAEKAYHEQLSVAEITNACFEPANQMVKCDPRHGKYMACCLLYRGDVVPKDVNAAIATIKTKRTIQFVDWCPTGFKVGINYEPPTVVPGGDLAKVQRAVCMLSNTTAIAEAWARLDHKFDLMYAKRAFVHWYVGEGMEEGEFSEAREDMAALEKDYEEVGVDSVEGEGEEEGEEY
Sequence (P02554 whole entry): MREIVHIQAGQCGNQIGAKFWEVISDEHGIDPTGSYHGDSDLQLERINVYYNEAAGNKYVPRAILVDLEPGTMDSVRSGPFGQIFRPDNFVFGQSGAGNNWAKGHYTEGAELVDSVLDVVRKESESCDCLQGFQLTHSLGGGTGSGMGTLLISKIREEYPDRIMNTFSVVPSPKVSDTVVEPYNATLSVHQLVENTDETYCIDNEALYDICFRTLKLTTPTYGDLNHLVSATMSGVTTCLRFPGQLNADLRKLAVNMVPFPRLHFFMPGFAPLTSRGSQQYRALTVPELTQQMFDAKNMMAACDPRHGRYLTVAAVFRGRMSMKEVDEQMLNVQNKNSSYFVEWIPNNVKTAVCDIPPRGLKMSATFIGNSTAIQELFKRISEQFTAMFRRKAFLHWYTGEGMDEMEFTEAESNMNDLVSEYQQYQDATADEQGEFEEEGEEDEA
Known IC50 of a selection of compounds
Return type: number; implicit unit µM.

| compound | IC50 / µM |
| --- | --- |
| COc1cc2c(cc1O)CC[C@@H]1[C@@H]2CC[C@]2(C)[C@@H](O)CC[C@@H]12 [2-Methoxyestradiol, reference compound] | 2.7 |
| COc1cc2c(cc1OS(N)(=O)=O)CC[C@@H]1[C@@H]2CC[C@]2(C)[C@@H](C)CC[C@@H]12 [(5)] | 1.3 |
| COc1cc2c(cc1OS(N)(=O)=O)CC[C@@H]1[C@@H]2CC[C@]2(C)[C@@H](C(F)F)CC[C@@H]12 [(9)] | 1.5 |
| C=C1CC[C@H]2[C@@H]3CCc4cc(OS(N)(=O)=O)c(OC)cc4[C@H]3CC[C@]12C [(4)] | 1.4 |
| CCc1cc2c(cc1OS(N)(=O)=O)CC[C@@H]1[C@@H]2CC[C@]2(C)[C@@H](OC)CC[C@@H]12 [(3)] | 1.4 |
| COc1cc2c(cc1OS(N)(=O)=O)CC[C@@H]1[C@@H]2CC[C@]2(C)CCC[C@@H]12 [(1)] | 0.67 |

We next turn to a different compound, shown below.
Query string: What value of measured IC50 is listed for COc1cc2c(cc1OS(N)(=O)=O)CC[C@@H]1[C@@H]2CC[C@]2(C)C(=C(F)F)CC[C@@H]12 [(8)] ?
Result string: 1.1
